Structures can show the parent of a compound that is named as a salt.
Parameter: melting point. Scope: all listed entries.

For orientation, consider the following solved cases.
{"compound": "Cc1ccc(/C(=N/OCCN)c2cc3ccncc3[nH]2)cc1 (single isomer, unassigned) (as salt: trifluoroacetate) [Example 119]", "result value": "190 to 194 °C"}
{"compound": "CC(C)CC(O)c1cc2ccncc2[nH]1 (centres unmarked) [Example 79]", "result value": "182 to 189 °C (dec.)"}
{"compound": "OC(CCc1ccccc1)c1cc2ccncc2[nH]1 (centres unmarked) [Example 83]", "result value": "162 to 166 °C"}
{"compound": "O=C(NCc1ccco1)c1cc2ccnc(Cl)c2[nH]1 [Example 7]", "result value": "205 to 209 °C"}
{"compound": "NC(c1ccccc1)c1cc2ccncc2[nH]1 (centres unmarked) (as salt: hydrochloride) [Example 40, dihydrochloride]", "result value": "240 to 250 °C"}

Value lookup for melting point; key = O=C(NCc1cccs1)c1cc2ccnc(N(Cc3ccccc3)Cc3ccccc3)c2[nH]1 [Example 38] 152 to 154 °C

Same thing, different compound: Cl.c1ccc(CON=C(c2ccccc2)c2cc3ccncc3[nH]2)cc1 153 to 155 °C

Same thing, different compound: O=C(NC(c1ccccc1)c1cc2ccncc2[nH]1)c1ccccc1 (centres unmarked) [Example 51] 206 to 208 °C

Same thing, different compound: O=C(NC(c1ccccc1)c1cc2ccncc2[nH]1)c1cccnc1 (centres unmarked) [Example 43] 178 to 188 °C

Same thing, different compound: O=C(c1cc2ccnc(Cl)c2[nH]1)N1CCSCC1 [Example 14] 62 to 72 °C

Same thing, different compound: CNCc1cc2ccnc(Cl)c2[nH]1.Cl 264 to 266 °C (dec.)

###

Structures can show the parent of a compound that is named as a salt.
readout kind: melting point

For orientation, consider the following solved cases.
{"compound": "O=C(NCc1ccccn1)c1cc2ccnc(Cl)c2[nH]1 [Example 4]", "result value": "177 to 183 °C"}
{"compound": "CC(C)C/C(=N\\NC(=N)N)c1cc2ccncc2[nH]1 (as salt: hydrochloride)", "result value": "232 to 236 °C"}
{"compound": "c1ccc(C(=NOC2CCNCC2)c2cc3ccncc3[nH]2)cc1 (single isomer, unassigned) (as salt: hydrochloride)", "result value": "240 to 245 °C (dec.)"}
{"compound": "CON=C(c1ccccc1)c1cc2ccncc2[nH]1.Cl [Example 121]", "result value": "220 to 222 °C"}
{"compound": "Cl.Cl.c1ccc(C(=NOC2CCCNC2)c2cc3ccncc3[nH]2)cc1 (single isomer, unassigned)", "result value": "240 to 245 °C (dec.)"}

Now consider the entry below.
Value lookup for melting point; key = O=C(NC(c1ccccc1)c1cc2ccncc2[nH]1)c1ccccn1 (stereo not drawn) [Example 50] 102 to 110 °C

###

Parameter: melting point. Scope: all listed entries.

{"molecule": "CC(=O)N1CCN(C(=O)c2cc3ccnc(Cl)c3[nH]2)CC1", "melting point": "179 to 184 °C"}
{"molecule": "O=C(c1ccccc1)c1cc2ccncc2[nH]1", "melting point": "245 to 247 °C"}
{"molecule": "O=C(c1ccccc1)c1cc2ccnc(N(Cc3ccccc3)Cc3ccccc3)c2[nH]1", "melting point": "122 to 124 °C"}
{"molecule": "O=C(c1ccc(Cl)cc1)c1cc2ccncc2[nH]1", "melting point": "274 to 277 °C (dec.)"}

Now consider the entry below.
Value lookup for melting point; key = Cl.Clc1nccc2cc(CNCCN3CCOCC3)[nH]c12 146 to 150 °C

###

Where a name gives a salt, the structure may show the parent alone.
readout kind: melting point

For orientation, consider the following solved cases.
{"compound": "OC(Cc1ccccc1)c1cc2ccncc2[nH]1 (stereo not shown)", "melting point": "169 to 172 °C (dec.)"}
{"compound": "OC(c1ccccc1)c1cc2ccncc2[nH]1 (stereo not shown)", "melting point": "178 to 180 °C"}
{"compound": "CN1CCN(C(=O)c2cc3ccnc(Cl)c3[nH]2)CC1", "melting point": "230 to 232 °C"}

Value lookup for melting point; key = N=C(N)NN=C(c1ccccc1)c1cc2ccncc2[nH]1 (as salt: hydrochloride) 306 to 310 °C

Cited source: patent US7608627B2
